I'd be grateful if you could share measured EC50 for these entries.
Test system: Influenza type B (cell culture adapted strain B/Lee/40, ATCC VR-1535)
Assay: Influenza antiviral assay: inhibition of virus-induced cytopathic effects (CPE) in MDCK cells, XTT dye reduction
Assay type: cell-based
Conditions: Influenza B virus, MDCK, 96 h, strain B/Lee/40, MDCK cells, CPE inhibition at 4 days

Inquiry: If you can, please state the reported EC50 value of O=C1c2c(O)c(=O)ccn2N(C23c4ccccc4CC2Cc2c(F)cccc23)CN1C1CC1 (centres unmarked) .
Reply text: < 0.125 µM

Inquiry: What does the data say about its EC50? Entry: CCN1CN(C23c4ccccc4CC2(CC)Cc2c3ccc(F)c2F)n2ccc(=O)c(O)c2C1=O (centres unmarked)
Reply text: < 0.125 µM

Inquiry: Report EC50 for O=C1c2c(O)c(=O)ccn2N(C23c4ccccc4CC2Cc2c3ccc(F)c2F)CN1CC1CC1 (centres unmarked) please.
Reply text: 0.125 to 0.25 µM

Inquiry: Any idea what EC50 was measured for CC1N(CC(F)F)C(=O)c2c(O)c(=O)ccn2N1C12c3ccccc3CC1Cc1c(F)cccc12 (centres unmarked) ?
Reply text: 0.125 to 0.25 µM

Inquiry: Given the entry O=C1c2c(O)c(=O)ccn2N(C23c4ccccc4CC2Cc2c3ccc(F)c2F)CN1C1CC1 (centres unmarked) , report its measured EC50.
Reply text: < 0.125 µM

Inquiry: Value lookup for EC50; key = CCN1CN(C23c4cccc(F)c4CC2Cc2c(Cl)cccc23)n2ccc(=O)c(O)c2C1=O (centres unmarked)
Reply text: 0.125 to 0.25 µM

Inquiry: Return reported EC50; argument: CC(C)CN1C(=O)c2c(O)c(=O)ccn2N(C23c4ccccc4CC2Cc2c(Cl)cccc23)C1C (centres unmarked)
Reply text: 0.25 to 0.375 µM

Inquiry: Please give the measured EC50 for this molecule: COCCN1CN(C23c4cccc(F)c4CC2Cc2c(F)cccc23)n2ccc(=O)c(O)c2C1=O (centres unmarked)
Reply text: < 0.125 µM
